Target: cellular cereblon (CRBN) (Homo sapiens, UniProt Q96SW2)
Assay Details: NanoBRET Target Engagement Assay, competition with pomalidomide tracer in 293T.116 cells
Condition Parameters: 6 hours incubation, 293T.116 cells; IP
Measured Parameter: NanoBRET TE 293T.116 CRBN 6 hours IP nM

# Molecule, Target, NanoBRET TE 293T.116 CRBN 6 hours IP nM
measured = [
    ("O=C1CCC(Oc2ccc(C3CCNCC3)c(S(=O)(=O)F)c2)C(=O)N1 (stereo not drawn)", "cellular cereblon (CRBN) (Homo sapiens, UniProt Q96SW2)", "*** (<= 1 μM is ***)"),
    ("O=C1CCC(Nc2ccc(C3CCNCC3)c(OS(=O)(=O)F)c2)C(=O)N1 (stereo not drawn)", "cellular cereblon (CRBN) (Homo sapiens, UniProt Q96SW2)", "*** (<= 1 μM is ***)"),
    ("O=C1CCC(c2ccc(OS(=O)(=O)F)cc2)C(=O)N1 (stereo not drawn)", "cellular cereblon (CRBN) (Homo sapiens, UniProt Q96SW2)", "*** (<= 1 μM is ***)"),
    ("CN(c1cccc(S(=O)(=O)F)c1)C1CCC(=O)NC1=O (stereo not drawn)", "cellular cereblon (CRBN) (Homo sapiens, UniProt Q96SW2)", "*** (<= 1 μM is ***)"),
    ("COc1ccc(OC2CCC(=O)NC2=O)cc1S(=O)(=O)F (stereo not drawn)", "cellular cereblon (CRBN) (Homo sapiens, UniProt Q96SW2)", "*** (<= 1 μM is ***)"),
    ("COc1cc(OC2CCC(=O)NC2=O)cc(OS(=O)(=O)F)c1 (stereo not drawn)", "cellular cereblon (CRBN) (Homo sapiens, UniProt Q96SW2)", "*** (<= 1 μM is ***)"),
]

Noted NanoBRET TE 293T.116 CRBN 6 hours IP nM for CN(c1cccc(OS(=O)(=O)F)c1)C1CCC(=O)NC1=O (stereo not drawn) , tested on cellular cereblon (CRBN) (Homo sapiens, UniProt Q96SW2): * (>=10 μM is *)

Noted NanoBRET TE 293T.116 CRBN 6 hours IP nM for O=C1CCN(c2ccc(N3CCNCC3)c(OS(=O)(=O)F)c2)C(=O)N1 [drawing 1142] , tested on cellular cereblon (CRBN) (Homo sapiens, UniProt Q96SW2): * (>=10 μM is *)

###

Reported IC50 values follow for various compounds
Target: cellular cereblon (CRBN) (Homo sapiens)
Assay Details: NanoBRET Target Engagement Assay, competition with pomalidomide tracer in 293T.116 cells
Condition Parameters: NanoBRET TE 293T.116 CRBN 6 hours IC50 nM, 6 hours incubation, 293T.116 cells

Look over these answered cases.
# Compound, IC50
records = [
    ("O=C1CCN(c2ccc(N3CCNCC3)c(OS(=O)(=O)F)c2)C(=O)N1 [drawing 1142]", "1000 to 10000 nM"),
    ("Cc1cc(OC2CCC(=O)NC2=O)cc(OS(=O)(=O)F)c1 (stereo not drawn)", "< 1000 nM"),
    ("O=C1CCN(c2ccc(OS(=O)(=O)F)cc2)C(=O)N1", "> 10000 nM"),
]

For "O=C1NC(=O)C2(c3ccc(S(=O)(=O)F)cc3)CC1C2" the compound record lists IC50 as 1000 to 10000 nM

For "O=C1CCN(c2ccc(S(=O)(=O)F)cc2)C(=O)N1" the compound record lists IC50 as 1000 to 10000 nM

For O=C1CCC(Nc2ccc(C3CCNCC3)c(OS(=O)(=O)F)c2)C(=O)N1 (stereo not drawn) the compound record lists IC50 as < 1000 nM

For COc1ccc(OC2CCC(=O)NC2=O)cc1S(=O)(=O)F (stereo not drawn) the compound record lists IC50 as < 1000 nM
